- system-tested: T1, ST2 on the effector cells (KU812, KU812/NF-κB-1#, HUVEC, HMC-1) (human, UniProt Q01638 19-556)
- T1 sequence (looked up): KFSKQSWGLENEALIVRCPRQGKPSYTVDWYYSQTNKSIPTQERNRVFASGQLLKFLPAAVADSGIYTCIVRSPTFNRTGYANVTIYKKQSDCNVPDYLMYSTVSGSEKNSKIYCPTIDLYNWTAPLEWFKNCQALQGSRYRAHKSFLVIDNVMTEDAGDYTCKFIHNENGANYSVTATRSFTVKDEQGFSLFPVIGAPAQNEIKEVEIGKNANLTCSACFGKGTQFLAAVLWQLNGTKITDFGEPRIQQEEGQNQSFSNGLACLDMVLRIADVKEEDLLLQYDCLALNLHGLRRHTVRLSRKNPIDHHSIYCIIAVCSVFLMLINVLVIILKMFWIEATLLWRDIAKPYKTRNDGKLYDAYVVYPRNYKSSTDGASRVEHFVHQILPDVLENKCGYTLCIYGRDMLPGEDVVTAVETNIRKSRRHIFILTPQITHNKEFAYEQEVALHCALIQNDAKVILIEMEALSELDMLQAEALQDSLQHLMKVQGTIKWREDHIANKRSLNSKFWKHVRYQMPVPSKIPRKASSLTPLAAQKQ
- test-name: cell-based or functional assay
Assign Relative activity, HMC-1 IL8 production by IL33 to each entry below.
Write the numeric value and append its unit.

Query block: What value of Relative activity, HMC-1 IL8 production by IL33 has been recorded for this entry: 5888-379-H2L1 (antibody, human IgG4 S228P, kappa, V domains shown, Humanized antibody) VH: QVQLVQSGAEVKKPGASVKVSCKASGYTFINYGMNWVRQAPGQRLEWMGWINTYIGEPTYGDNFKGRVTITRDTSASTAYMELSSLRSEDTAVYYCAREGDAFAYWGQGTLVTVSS VL: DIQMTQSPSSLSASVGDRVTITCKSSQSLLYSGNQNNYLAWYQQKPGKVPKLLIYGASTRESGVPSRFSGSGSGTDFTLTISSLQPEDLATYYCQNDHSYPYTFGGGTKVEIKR
Result block: 43.8%

Query block: What does the record list as Relative activity, HMC-1 IL8 production by IL33 for 5888-153-H0L1 (antibody, human IgG4 S228P, kappa, V domains shown, Humanized antibody) VH: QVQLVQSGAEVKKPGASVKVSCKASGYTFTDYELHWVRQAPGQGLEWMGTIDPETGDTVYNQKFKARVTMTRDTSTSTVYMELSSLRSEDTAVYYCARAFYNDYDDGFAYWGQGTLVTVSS VL: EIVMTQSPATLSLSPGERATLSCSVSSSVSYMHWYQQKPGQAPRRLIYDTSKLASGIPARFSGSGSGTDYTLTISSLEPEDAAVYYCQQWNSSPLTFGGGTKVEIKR ?
Result block: 280%

Query block: Give its Relative activity, HMC-1 IL8 production by IL33 value. Item: 5886-156-H1L0 (antibody, human IgG4 S228P, kappa, V domains shown, Humanized antibody expressed in CHO-K1, purified by protein A) VH: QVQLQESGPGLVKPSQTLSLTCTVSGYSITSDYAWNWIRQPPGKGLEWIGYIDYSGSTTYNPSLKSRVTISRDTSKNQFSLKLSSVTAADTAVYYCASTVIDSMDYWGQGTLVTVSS VL: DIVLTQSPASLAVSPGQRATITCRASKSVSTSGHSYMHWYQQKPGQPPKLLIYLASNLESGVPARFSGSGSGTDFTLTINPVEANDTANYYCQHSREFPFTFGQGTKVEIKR
Result block: 56.9%

Query block: What value of measured Relative activity, HMC-1 IL8 production by IL33 is listed for 5888-116-H0L1 (antibody, human IgG4 S228P, kappa, V domains shown, Humanized antibody) VH: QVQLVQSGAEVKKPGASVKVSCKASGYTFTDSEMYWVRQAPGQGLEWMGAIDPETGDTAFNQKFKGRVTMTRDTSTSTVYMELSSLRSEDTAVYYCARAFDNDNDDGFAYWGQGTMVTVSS VL: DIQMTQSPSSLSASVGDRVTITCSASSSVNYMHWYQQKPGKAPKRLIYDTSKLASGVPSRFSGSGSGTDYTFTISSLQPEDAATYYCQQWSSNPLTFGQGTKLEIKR ?
Result block: 1830%

Query block: I would be grateful if you could share the reported Relative activity, HMC-1 IL8 production by IL33 for 5888-379-H1L0 (antibody, human IgG4 S228P, kappa, V domains shown, Humanized antibody) VH: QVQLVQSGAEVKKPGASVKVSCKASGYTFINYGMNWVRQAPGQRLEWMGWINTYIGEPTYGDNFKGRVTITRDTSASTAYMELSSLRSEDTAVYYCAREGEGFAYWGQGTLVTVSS VL: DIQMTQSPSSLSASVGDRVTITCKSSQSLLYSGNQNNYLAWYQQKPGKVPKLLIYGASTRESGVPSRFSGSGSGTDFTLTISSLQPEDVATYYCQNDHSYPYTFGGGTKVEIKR .
Result block: 30.1%
